measured on: Protein kinase C zeta type (Homo sapiens) (UniProt Q05513)
Sequence (Q05513 whole entry): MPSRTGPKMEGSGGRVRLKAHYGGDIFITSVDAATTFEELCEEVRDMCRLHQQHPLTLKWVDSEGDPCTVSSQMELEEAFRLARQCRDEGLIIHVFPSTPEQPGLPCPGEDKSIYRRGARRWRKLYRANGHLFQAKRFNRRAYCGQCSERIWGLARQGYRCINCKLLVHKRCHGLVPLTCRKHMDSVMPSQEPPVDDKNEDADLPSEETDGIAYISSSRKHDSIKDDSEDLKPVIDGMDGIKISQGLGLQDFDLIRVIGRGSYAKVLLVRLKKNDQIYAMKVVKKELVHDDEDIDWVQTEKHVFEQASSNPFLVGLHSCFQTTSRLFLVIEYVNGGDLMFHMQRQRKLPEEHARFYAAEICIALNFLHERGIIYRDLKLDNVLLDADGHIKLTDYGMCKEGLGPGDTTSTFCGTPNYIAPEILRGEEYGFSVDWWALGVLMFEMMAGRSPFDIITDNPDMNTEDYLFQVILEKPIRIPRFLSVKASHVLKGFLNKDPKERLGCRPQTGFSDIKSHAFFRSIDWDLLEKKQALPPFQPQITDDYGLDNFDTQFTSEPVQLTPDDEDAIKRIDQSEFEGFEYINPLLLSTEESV
applied conditions: at 10 µM
Would you please tag the item Met when its residual activity is 90% or above, and Not met when it is below?

O=S(=O)(NCCNC/C=C/c1ccc(Br)cc1)c1cccc2cnccc12 :: Not met
NCCNc1ncc(C(N)=O)c(Nc2cccc(C(F)(F)F)c2)n1 :: Met
COc1ccc(CNC(=O)Nc2ncc([N+](=O)[O-])s2)cc1 :: Met

## Input Entry NC(=O)Nc1sc(-c2ccc(F)cc2)cc1C(N)=O : is its residual activity no less than 90%?
## Output Met

## Input Entry COc1cc2ncnc(Nc3cccc(Cl)c3)c2cc1OC : is its residual activity no less than 90%?
## Output Met

## Input Entry COc1ccc2c(c1)c(C1=C(c3c[nH]c4ccccc34)C(=O)NC1=O)cn2CCCN(C)C : is its residual activity no less than 90%?
## Output Not met
